Values were extracted from patent US6960611B2.

# Test system: carrageenan-induced foot pad edema
# Method Notes: Rat carrageenan-induced foot pad edema assay
# Assay type: in vivo
# Run Conditions: 10 mg/kg oral, 3 h after carrageenan
edema (paw volume increase) overview
Reply numerically in %, unit not repeated.

The following molecules have reported results that may help.
Identify edema (paw volume increase) associated with the molecule CS(=O)(=O)c1ccc(C2=C(c3ccccc3)C(=O)OC2)cc1 [Rofecoxib, reference compound] 47.2

Identify edema (paw volume increase) associated with the molecule NS(=O)(=O)c1ccc(-c2[nH]c3ccccc3c2-c2ccccc2)cc1 [Example 60, 2-(4-aminosulfonylphenyl)-3-phenylindole] 56.9

Identify edema (paw volume increase) associated with the molecule CS(=O)(=O)c1ccc(-c2[nH]c3ccc(F)cc3c2-c2ccccc2)cc1 [Example 79] 47.7

Could you now look at the following molecule, please?
Identify edema (paw volume increase) associated with the molecule NS(=O)(=O)c1ccc(-c2[nH]c3ccc(Cl)cc3c2-c2cccc(Cl)c2)cc1 [Example 85] 62.3

====

melting point overview

The following compounds have reported results that may help.
Identify melting point associated with the compound CS(=O)(=O)c1ccc(-c2[nH]c3ccc(Br)cc3c2-c2ccccc2)cc1 262 to 264 °C

Identify melting point associated with the compound CS(=O)(=O)c1ccc(-c2[nH]c3ccc(Cl)cc3c2-c2ccccc2Cl)cc1 300 to 301.5 °C

Identify melting point associated with the compound CS(=O)(=O)c1ccc(-c2c(-c3ccc(Cl)cc3)[nH]c3ccc(Cl)cc23)cc1 269 to 271 °C

Could you now look at the following compound, please?
Identify melting point associated with the compound NS(=O)(=O)c1ccc(-c2[nH]c3ccc(Br)cc3c2-c2ccccc2)cc1 310 to 312 °C

====

edema (paw volume increase) overview
# Test system: carrageenan-induced foot pad edema
# Method Notes: Rat carrageenan-induced foot pad edema assay
# Format: in vivo
# Run Conditions: 10 mg/kg oral, 3 h after carrageenan
Reply numerically in %, unit not repeated.

The following compounds have reported results that may help.
Identify edema (paw volume increase) associated with the compound NS(=O)(=O)c1ccc(-c2[nH]c3ccccc3c2-c2ccc(Cl)cc2)cc1 41.3

Identify edema (paw volume increase) associated with the compound CS(=O)(=O)c1ccc(-c2c(-c3ccccc3F)[nH]c3ccc(Cl)cc23)cc1 44.6

Identify edema (paw volume increase) associated with the compound CS(=O)(=O)c1ccc(-c2[nH]c3ccc(Cl)cc3c2-c2ccccc2)cc1 46

Identify edema (paw volume increase) associated with the compound NS(=O)(=O)c1ccc(-c2[nH]c3ccc(F)cc3c2-c2ccccc2)cc1 46.6

Identify edema (paw volume increase) associated with the compound Cc1ccc(-c2c(-c3ccc(S(C)(=O)=O)cc3)[nH]c3ccccc23)cc1C 43.9

---
Identify edema (paw volume increase) associated with the compound CS(=O)(=O)c1ccc(-c2c(-c3ccccc3)[nH]c3ccccc23)cc1 54.4

Identify edema (paw volume increase) associated with the compound NS(=O)(=O)c1ccc(-c2[nH]c3ccccc3c2-c2ccc(F)cc2)cc1 36.4

Identify edema (paw volume increase) associated with the compound CS(=O)(=O)c1ccc(-c2c(-c3ccc(Cl)cc3)[nH]c3ccc(Cl)cc23)cc1 66.5
